Target entity: Protein RecA (Mycobacterium tuberculosis, UniProt P9WHJ3)
Run description: Fluorescence Cell-Free Homogeneous Dose Retest to Identify Inhibitors of RecA-Intein Splicing Activity. [Related pubchem assays (depositor defined):AID2097, AID2223, AID489010, AID492950]
Format: functional
Active and inactive are the calls of the source. Rule as the data show it: actives have a measured EC50 and inactives only a lower limit.
Use one of these outcomes when replying: active, inactive

// below: answered compounds
compound=CCOC(=O)c1c(CSC(=N)N)n(-c2ccc(C)cc2)c2cc(Br)c(OC(C)=O)cc12 class_assignment=active
compound="Cc1cc2nc3ccc(N(C)C)cc3[s+]c2cc1N [TOLONIUM CHLORIDE]" class_assignment=active
compound=CCOc1cccc(-c2cc(O)[nH]n2)c1 class_assignment=active

So what was the verdict on CCCc1n[nH]c2c1C(c1cccc(OC)c1)C(C#N)=C(N)O2 (configuration not stated) in this test?
active
